Here, each record is paired with measured melting point data.
VALUE_TYPE: melting point (°C)

[
  {
    "SMILES_INPUT": "CNC(=O)c1cccc(-c2c(Cl)ccc(N)c2Cl)c1",
    "VALUE_TYPE": "melting point",
    "RESULT": 64.1
  },
  {
    "SMILES_INPUT": "CNC(=O)c1cccc(-c2c(Cl)ccc(C(F)(F)F)c2Cl)c1",
    "VALUE_TYPE": "melting point",
    "RESULT": 126.1
  },
  {
    "SMILES_INPUT": "CNC(=O)c1cccc(-c2c(C)cc(OC)cc2C)c1",
    "VALUE_TYPE": "melting point",
    "RESULT": 139.6
  }
]
